Tested on: Cysteinyl leukotriene receptor (Cavia porcellus)
Experiment: Ability to inhibit the contraction induced by 8 nM LTE4 on isolated guinea pig tracheal strips at 10 uM dose; % antagonism / % basal tension
Conditions: Trachea
TEST READOUT: Ratio

# GIVEN SMILES, READING
data = [
    ("CCCCCCCc1ccc(C/C=C\\[C@@H](SCc2ccc(C(=O)O)cc2OC)[C@@H](O)CCCC(=O)O)cc1", 74),
]

a: CCCCCCCc1ccc(C/C=C\[C@@H](SCc2ccc(C(=O)O)c(N)c2)[C@@H](O)CCCC(=O)O)cc1
b: CCCCCCCc1ccc(C/C=C\[C@@H](SCc2cccc(/C=C/C(=O)O)c2)[C@@H](O)CCCC(=O)O)cc1
c: CCCCCCCc1ccc(C/C=C\[C@@H](Sc2cccc(N)c2)[C@@H](O)CCCC(=O)O)cc1
d: CCCCCCOc1cccc(C/C=C\[C@@H](SCc2ccc(C(=O)O)cc2OC)[C@@H](O)CCCC(=O)O)c1
INPUT: Rank by Ratio (largest to smallest). Give the labels in the order specified.
OUTPUT: d, a, b, c

1: CCCCCCCc1ccc(C/C=C\[C@@H](SCc2cc(C(=O)O)ccc2N)[C@@H](O)CCCC(=O)O)cc1
2: CCCCC/C=C/c1cccc(C/C=C\[C@@H](SCc2ccc(C(=O)O)cc2OC)[C@@H](O)CCCC(=O)O)c1
3: CCCCCCCc1ccc(C/C=C\[C@@H](Sc2ccc(Cl)c(Cl)c2)[C@@H](O)CCCC(=O)O)cc1
4: CCCCCCOc1ccccc1C/C=C\[C@@H](SCc1ccc(C(=O)O)cc1OC)[C@@H](O)CCCC(=O)O
INPUT: Rank by Ratio (largest to smallest). Give the labels in the order specified.
OUTPUT: 2, 1, 4, 3
(2: 57, 1: 39, 4: 24, 3: 2)
